The measured values listed here are drawn from patent US20240391937A1.

Assay: Pharmacokinetic test in mice
Format: in vivo, ICR mice
Conditions: male, ICR, mouse, iv; mice, i.v. 2.5 mg/kg, plasma

[
  {
    "substance-smiles": "O=C(NC1CC1)c1ccc(C2=CCN(Cc3cnc4cc(C5CC5)c(=O)[nH]c4c3)CC2)cn1",
    "clearance": "0.346 mL/min/kg"
  }
]

---

Experiment: Pharmacokinetic test in rats
Format: in vivo, SD rats
Settings: male, SD, rat, po; rats, i.g. 10 mg/kg, plasma

[
  {
    "substance-smiles": "CNC(=O)c1ccc(N2CCN(Cc3cnc4cc(C5CC5)c(=O)[nH]c4c3)CC2)cn1",
    "AUC(0-t) / µg·h/mL": 206
  }
]
